assay: PSAC antagonists in infected red cells, primary screen, cell-based, P. falciparum Indochina, OD700, 2 h (AID 1155);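 note: lysis reports solute entry through the parasite surface anion channel PSAC; channel blockers reduce lysis of infected cells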; settings: P. falciparum Indochina infected erythrocytes, osmotic lysis OD700; higher = more signal, called active from +8 up or from −8 down

>  <compound>
COc1cc2c(cc1OC)CN(C(=O)[C@@H]1[C@H]3C(=O)O[C@H](c4ccccc4)[C@H](c4ccccc4)N3[C@H](c3ccccc3OCCO)[C@@]13C(=O)Nc1ccc(C#CCNC(N)=O)cc13)CC2

>  <z-score>
-0.45

$$$$
>  <compound>
COc1ccc(CCNC(=O)[C@@]2(c3ccc([N+](=O)[O-])cc3)CC(=O)N(CC34CC5CC(CC(C5)C3)C4)[C@@H]2c2ccc(CO)cc2)cc1

>  <z-score>
0.522

$$$$
>  <compound>
[N-]=[N+]=NCc1ccccc1[C@@H]1OC(c2ccc(OCCCO)cc2)=N[C@]1(Cc1ccccc1N=[N+]=[N-])C(=O)NCc1ccccc1

>  <z-score>
4.97

$$$$
>  <compound>
CC(C)c1ccc(NN2C(C(O)c3ccc(N(C)C)cc3)C=CC3C(=O)N(c4ccccc4)C(=O)C32)cc1 (configuration not stated)

>  <z-score>
1.05

$$$$
>  <compound>
C[C@]1(C(=O)NCc2ccccc2)c2ccccc2C(=O)N(Cc2cc(F)cc(C(F)(F)F)c2)[C@H]1c1ccc(CO)cc1

>  <z-score>
1.01

$$$$
>  <compound>
NCCCCCNC(=O)[C@H]1C[C@H]2C(=O)NCC(=O)N2[C@H]1c1cccc(OCCO)c1

>  <z-score>
0.508

$$$$
>  <compound>
O=c1oc(-c2ccccc2)nc2cc(Br)ccc12

>  <z-score>
0.635

$$$$

###

Below, each of the molecules is paired with its reported z-score value.
test: E. coli acrAB mutant growth effects, primary screen, E. coli filamentation inducers, strain DRC39, OD650, 48 h (AID 1179);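 note: screen aims at cell division blockers that make cells filament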; conditions: E. coli DRC39 delta-acrAB growth, higher = more signal, called active from +8 up or from −8 down
measured_property: z-score

>  <molecule>
COc1ccc([Si](C)(C)[C@H]2[C@H](CCn3cc(CCO)nn3)O[C@@]3(C(=O)N(Cc4ccc(N5CCOC5=O)cc4)c4ccccc43)[C@@H]2C)cc1

>  <measured_property>
z-score

>  <meas_value>
0.562

$$$$
>  <molecule>
C=C(COC)C(=O)CC[C@H](OC(C)=O)c1cccc(OCCO)c1

>  <measured_property>
z-score

>  <meas_value>
-0.639

$$$$
>  <molecule>
CCOC(=O)C1=CCC(c2ccc(C#N)cc2)N(S(=O)(=O)c2ccc(C)cc2)C1 (centres undefined)

>  <measured_property>
z-score

>  <meas_value>
0.435

$$$$
>  <molecule>
CC(C)N1C(=O)C[C@@](C(=O)NCc2ccccc2)(c2ccc([N+](=O)[O-])cc2)[C@H]1c1ccc(CO)cc1

>  <measured_property>
z-score

>  <meas_value>
1.23

$$$$
>  <molecule>
COCCOC(=O)N1C(=O)[C@@]2(c3cc(C#CCC(C(=O)OC)C(=O)OC)ccc31)[C@H](C(=O)N1CCCCCCC1)[C@H]1C(=O)O[C@H](c3ccccc3)[C@H](c3ccccc3)N1[C@@H]2c1ccc(OCCO)cc1

>  <measured_property>
z-score

>  <meas_value>
0.271

$$$$
>  <molecule>
CCCCC=C[C@@H](NC(=O)c1ccc(C(=O)OC)cc1)c1ccccc1

>  <measured_property>
z-score

>  <meas_value>
0.623

$$$$
>  <molecule>
NC(=O)NCC#Cc1ccc2c(c1)[C@]1(C(=O)N2)[C@H](C(=O)N2CCCCCCC2)[C@H]2C(=O)O[C@H](c3ccccc3)[C@H](c3ccccc3)N2[C@@H]1c1ccc(OCCO)cc1

>  <measured_property>
z-score

>  <meas_value>
-0.318

$$$$
>  <molecule>
CC(C)OC(=O)CC(=O)CC(O)c1ccc(C#N)cc1 (centres undefined)

>  <measured_property>
z-score

>  <meas_value>
1.44

$$$$
>  <molecule>
COc1ccc([Si](C)(C)[C@H]2[C@H](CCn3cc([C@H](O)c4ccccc4)nn3)O[C@@]3(C(=O)N(Cc4cccc(N5CCC5=O)c4)c4ccccc43)[C@@H]2C)cc1

>  <measured_property>
z-score

>  <meas_value>
1.02

$$$$
>  <molecule>
Cc1ccc([C@H]2[C@H](C(=O)O)[C@H](Sc3ccccc3)[C@@H](C(C)C)N2S(=O)(=O)c2ccc(C)cc2)cc1

>  <measured_property>
z-score

>  <meas_value>
-0.292

$$$$
>  <molecule>
COc1cc(C(O)C2C=CC3C(=O)N(c4ccccc4)C(=O)C3N2Nc2ccc(C#N)cc2)cc(OC)c1OC (centres undefined)

>  <measured_property>
z-score

>  <meas_value>
-0.386

$$$$
>  <molecule>
[N-]=[N+]=NCc1ccccc1[C@@H]1OC(c2ccc(OCCCO)cc2)=N[C@]1(Cc1ccccc1N=[N+]=[N-])C(=O)NCc1ccccc1

>  <measured_property>
z-score

>  <meas_value>
-1.96

$$$$
>  <molecule>
COc1ccc(C(O)C2C=CC3C(=O)NC(=O)C3N2Nc2ccccn2)cc1OCc1ccccc1 (centres undefined)

>  <measured_property>
z-score

>  <meas_value>
0.145

$$$$
>  <molecule>
CN(C)C(=O)[C@@]1(CCC(=O)OC(C)(C)C)N=C(c2ccc(OCCCO)cc2)O[C@H]1c1ccccc1

>  <measured_property>
z-score

>  <meas_value>
-0.353

$$$$
>  <molecule>
CCOC(=O)C1=CC[C@@H](c2ccccc2)N(S(=O)(=O)c2ccc(C)cc2)[C@H]1C(=O)OCC

>  <measured_property>
z-score

>  <meas_value>
0.237

$$$$
>  <molecule>
Cc1ccc(S[C@]2(C(=O)NCC(C)C)CC(=O)N(Cc3ccccc3Cl)[C@@H]2c2ccc(CO)cc2)cc1

>  <measured_property>
z-score

>  <meas_value>
-0.219

$$$$
>  <molecule>
CN(C)CCCNC(=O)[C@@]1(Cc2ccccc2I)c2ccccc2C(=O)N(Cc2ccccc2C(F)(F)F)[C@H]1c1ccc(CO)cc1

>  <measured_property>
z-score

>  <meas_value>
0.247

$$$$
>  <molecule>
C=CCOC(=O)[C@H]1[C@@H]2C(=O)O[C@@H](c3ccccc3)[C@@H](c3ccccc3)N2[C@@H](c2ccc(OCCOC(=O)[C@@H]3C[C@@H]4C(=O)N5CCC[C@H]5C(=O)N4[C@@H]3c3ccc(O)cc3)cc2)[C@]12C(=O)Nc1ccccc12

>  <measured_property>
z-score

>  <meas_value>
0.971

$$$$
>  <molecule>
CC(C)c1ccc(NN2C(C(O)c3ccc(N(C)C)cc3)C=CC3C(=O)N(c4ccccc4)C(=O)C32)cc1 (centres undefined)

>  <measured_property>
z-score

>  <meas_value>
0.766

$$$$
>  <molecule>
CCCCC=C[C@@H](NC(=O)c1cccs1)c1ccccc1

>  <measured_property>
z-score

>  <meas_value>
0.955

$$$$
>  <molecule>
CC(=O)C1=CCC(c2ccccc2)N(S(=O)(=O)c2ccc(C)cc2)C1 (centres undefined)

>  <measured_property>
z-score

>  <meas_value>
0.0116

$$$$
>  <molecule>
COc1cc2c(cc1OC)CN(C(=O)[C@@H]1[C@H]3C(=O)O[C@H](c4ccccc4)[C@H](c4ccccc4)N3[C@H](c3ccccc3OCCO)[C@@]13C(=O)Nc1ccc(C#CCNC(N)=O)cc13)CC2

>  <measured_property>
z-score

>  <meas_value>
1.31

$$$$
>  <molecule>
CN(C)CCCCNC(=O)[C@H]1C[C@H]2C(=O)N[C@@H](Cc3ccccc3)C(=O)N2[C@H]1c1ccc(O)cc1

>  <measured_property>
z-score

>  <meas_value>
-0.855

$$$$
>  <molecule>
C=CCC(OC(C)=O)[C@@H]1[C@@H](N(Cc2ccc(-c3cccc(C(F)(F)F)c3)o2)C(=O)c2ccc(C)cc2)c2cc(OCCCO)ccc2N1C(=O)c1ccc(-c2ccccc2)cc1 (some centres undefined)

>  <measured_property>
z-score

>  <meas_value>
0.0289

$$$$
>  <molecule>
COc1ccc(CCNC(=O)[C@@]2(c3ccc([N+](=O)[O-])cc3)CC(=O)N(CC34CC5CC(CC(C5)C3)C4)[C@@H]2c2ccc(CO)cc2)cc1

>  <measured_property>
z-score

>  <meas_value>
-0.281

$$$$
>  <molecule>
C=C(COC)C(=O)CC[C@@H](OC(=O)c1cccnc1)c1ccc(CO)o1

>  <measured_property>
z-score

>  <meas_value>
0.555

$$$$
>  <molecule>
Cc1ccc(S[C@]2(C(=O)O)CC(=O)N(C3Cc4ccccc4C3)[C@@H]2c2ccc(CO)cc2I)cc1

>  <measured_property>
z-score

>  <meas_value>
0.447

$$$$
>  <molecule>
CN1CCC(CCCO)=CC1c1ccc(CN2CCCC2)cc1 (centres undefined)

>  <measured_property>
z-score

>  <meas_value>
0.201

$$$$
>  <molecule>
O=C1c2ccccc2[C@@]2(Cc3ccccc3N(Cc3ccccc3)C2=O)[C@H](c2ccc(CO)cc2)N1C1CCCCC1

>  <measured_property>
z-score

>  <meas_value>
0.256

$$$$
